Attribute: Cell Viability
# Tested on: B cell
# Method notes: Cytotoxicity screening of chemical probes in isolated B cell assay. Data is normalized to DMSO control, the cell viability average of replicates are reported. Reduction of ATP level more than 20% indicate compromised cell health status.
# Reported conditions: human, 1 µM
Positions of bridges follow the written chain, without caps; N, C: chain ends. Non-standard residues stand in square brackets, D forms with d. Residues, ends and D or L forms follow the SMILES beside them. Orn = NCCC[C@H](N)C(=O)O; Mpa = O=C(O)CCS
Property measured: Cell Viability (%)

[[record]]
compound = "CC(=O)Nc1c(F)cc(C(=O)N[C@H]2CC[C@H](O)CC2)cc1O[C@@H](C)c1ccccc1"
recorded_value = 96.5866

[[record]]
compound = "COc1ccccc1S(=O)(=O)Nc1ccc2c(c1)CN(C)C(=O)N2"
recorded_value = 94.2739

[[record]]
compound = "Cc1cc(-n2nc(Cc3cc(F)cc(C(F)(F)F)c3)nc2C)ccc1C(N)=O"
recorded_value = 100.697

[[record]]
compound = "C[C@@H](O[C@H]1OCCN(Cc2n[nH]c(=O)[nH]2)[C@H]1c1ccc(F)cc1)c1cc(C(F)(F)F)cc(C(F)(F)F)c1 [APREPITANT]"
recorded_value = 101.584

[[record]]
compound = "CN(C)CC#Cc1ccc(OCCCc2sc(N3CCc4cccc(C(=O)Nc5nc6ccccc6s5)c4C3)nc2C(=O)O)c(F)c1"
recorded_value = 88.7648

[[record]]
compound = "CCCOc1ccn2c(C(C)=O)cc(-c3ccccc3S(C)(=O)=O)c2c1"
recorded_value = 98.3118

[[record]]
compound = "CN([C@@H]1CCc2c(CC(=O)O)c3ccccc3n2C1)S(=O)(=O)c1ccc(F)cc1"
recorded_value = 96.8838

[[record]]
compound = "C[C@H](c1ccnc(Nc2nc3ccc(-c4cc(N(C)C)ncn4)cc3[nH]2)c1)N1CCN(C(=O)CC(F)(F)F)CC1"
recorded_value = 78.1838

[[record]]
compound = "Cc1cc(OCCCS(C)(=O)=O)cc(C)c1-c1cccc(COc2ccc3c(c2)OC[C@H]3CC(=O)O)c1"
recorded_value = 101.968

[[record]]
compound = "CC(=O)N1CCC(c2ccc(C(=O)NC(=N)N)cc2C(F)(F)F)CC1"
recorded_value = 95.0864

[[record]]
compound = "CCNC(=O)c1cc2c(N3CCOCC3C)ccnc2[nH]1 (stereo not given)"
recorded_value = 99.1799

[[record]]
compound = "CCOc1ccc(C[C@H]2NC(=O)CCSSC[C@@H](C(=O)N3CCC[C@H]3C(=O)N[C@@H](CCCN)C(=O)NCC(N)=O)NC(=O)[C@H](CC(N)=O)NC(=O)[C@H]([C@@H](C)O)NC(=O)[C@H]([C@@H](C)CC)NC2=O)cc1 [ATOSIBAN] ([Mpa][dY](Et)ITNCP[Orn]G-NH2; disulfide 1-6)"
recorded_value = 101.789

[[record]]
compound = "COCc1nc2cnc3cc(-c4c(C)noc4C)c(OC[C@H]4CCNC4)cc3c2n1[C@H](C)c1ccccc1"
recorded_value = 95.4048

[[record]]
compound = "COc1ccc(CCc2nc3cc(-c4c(C)noc4C)ccc3n2C[C@H](C)N2CCOCC2)cc1Cl"
recorded_value = 94.0053

[[record]]
compound = "CCCc1cc(C)[nH]c(=O)c1CNC(=O)c1cc(-c2ccc(N3CCN(C(C)C)CC3)nc2)cc2c1cnn2C(C)C"
recorded_value = 96.021


====

# Test system: B cell
# Method notes: Cytotoxicity screening of chemical probes in isolated B cell assay. Data is normalized to DMSO control, the cell viability average of replicates are reported. Reduction of ATP level more than 20% indicate compromised cell health status.
# Reported conditions: human, 1 µM
Property measured: Cell Viability (%)

[[record]]
compound = "O=C1CCc2cc(Nc3cc(OC4CCOCC4)c([N+](=O)[O-])cc3Cl)ccc2N1"
property_measured = "Cell Viability"
recorded_value = 94.8245

[[record]]
compound = "Cc1cc(=O)n(C)c2cc(N3C(=O)CC[C@H](NS(=O)(=O)CC(C)C)[C@H]3c3ccc(Cl)cc3)ccc12"
property_measured = "Cell Viability"
recorded_value = 97.6321

[[record]]
compound = "COc1ccc(C(=O)N2CCN(C(=O)/C=C/c3ccc(Br)cc3)CC2)cc1"
property_measured = "Cell Viability"
recorded_value = 97.705

[[record]]
compound = "CC(=O)c1cc(-c2cc(C(=O)NC3CC3)ccc2C)c2ncccn12"
property_measured = "Cell Viability"
recorded_value = 95.0596

[[record]]
compound = "COc1cc(C(=O)N(CCCc2ccccc2)Cc2ccc(CC(=O)O)cc2)cc(OC)c1C"
property_measured = "Cell Viability"
recorded_value = 101.167

[[record]]
compound = "CC1(C)[C@H]2C[C@H](C/C=C\\CCCC(=O)O)[C@@H](NC(=O)c3csc4ccc(O)cc34)[C@@H]1C2"
property_measured = "Cell Viability"
recorded_value = 100.906

[[record]]
compound = "C[C@H](c1ccc(F)cc1)N(Cc1cccc(C(=O)O)c1)C(=O)c1cnc2ccccc2c1"
property_measured = "Cell Viability"
recorded_value = 99.1446

[[record]]
compound = "C[C@@H]1CN(Cc2ccc(F)cc2)CCN1C(=O)COc1ccc(Cl)cc1NC(N)=O [BX 471 FREE BASE]"
property_measured = "Cell Viability"
recorded_value = 91.1693

[[record]]
compound = "C[C@H]1CCCN1Cc1nc2cc(NC(=O)c3ccc4cnccc4c3)ccc2[nH]1"
property_measured = "Cell Viability"
recorded_value = 90.4338


====

Attribute: Cell Viability
# Test system: B cell
# Method notes: Cytotoxicity screening of chemical probes in isolated B cell assay. Data is normalized to DMSO control, the cell viability average of replicates are reported. Reduction of ATP level more than 20% indicate compromised cell health status.
# Reported conditions: human, 1 µM
Property measured: Cell Viability (%)

[[record]]
smiles_record = "COc1ccc2c(c1)O[C@@H](c1ccc(OC)c(OC)c1)C[C@H]2NC(=O)C1(c2ccc3c(c2)OC(F)(F)O3)CC1"
experimental_system = "B cell"
unit_tag = "%"
recorded_value = 101.385

[[record]]
smiles_record = "COc1cc(C#N)ccc1S(=O)(=O)Nc1ccc2c(c1)cc(C)c(=O)n2C"
experimental_system = "B cell"
unit_tag = "%"
recorded_value = 99.4263

[[record]]
smiles_record = "Cc1c(N2CCCC2)nc2ccc(Br)cc2c1C(=O)NC[C@H](CCC(=O)O)c1ccccc1Cl"
experimental_system = "B cell"
unit_tag = "%"
recorded_value = 98.0293

[[record]]
smiles_record = "C[C@@H](OC[C@@]1(c2ccccc2)CC[C@]2(CCC(=O)N2)CN1)c1cc(C(F)(F)F)cc(C(F)(F)F)c1"
experimental_system = "B cell"
unit_tag = "%"
recorded_value = 97.3629


====

# Test system: B cell
# Method notes: Cytotoxicity screening of chemical probes in isolated B cell assay. Data is normalized to DMSO control, the cell viability average of replicates are reported. Reduction of ATP level more than 20% indicate compromised cell health status.
# Reported conditions: human, 1 µM
Attribute: Cell Viability
Property measured: Cell Viability (%)

[[record]]
compound = "CCCn1c(=O)c2[nH]c(C3CCCC3)nc2n(CCC)c1=O"
recorded_value = 101.399

[[record]]
compound = "C[C@H](NC(=O)c1cnc2n1[C@](C)(Cc1ccc(C#N)cc1)C(=O)N2c1cc(Cl)c(F)c(Cl)c1)C(=O)NC1(c2ccccn2)CC1 [BI 1950]"
recorded_value = 96.273

[[record]]
compound = "COc1cc2c(NC3CCN(C(C)C)CC3)nc(N3CCC(F)(F)CC3)nc2cc1OCCCN1CCCC1"
recorded_value = 98.4898

[[record]]
compound = "CCNC1(C(N)=O)CCN(c2ncnc3c2nc(-c2ccccc2Cl)n3-c2ccc(Cl)cc2)CC1 [OTENABANT]"
recorded_value = 101.882


====

Attribute: Cell Viability
# System: B cell
# Method notes: Cytotoxicity screening of chemical probes in isolated B cell assay. Data is normalized to DMSO control, the cell viability average of replicates are reported. Reduction of ATP level more than 20% indicate compromised cell health status.
# Reported conditions: human, 0.1 µM
Property measured: Cell Viability (%)

[[record]]
smiles_record = "COCCOc1nc(-c2ccc(Cl)nc2)nc2c1CN(C(=O)c1ncn3ccccc13)CC2"
experimental_system = "B cell"
recorded_value = 97.9791

[[record]]
smiles_record = "O[C@]1(C(F)(F)F)CCCC[C@H]1Nc1ccc(F)cc1"
experimental_system = "B cell"
recorded_value = 101.834

[[record]]
smiles_record = "CN1C(=O)[C@@H](N2CCc3c(nn(Cc4ccccc4)c3Br)C2=O)COc2ccccc21"
experimental_system = "B cell"
recorded_value = 101.749

[[record]]
smiles_record = "COc1ccc2cc(OCC3(C(=O)O)CN(C(=O)c4ccc(F)cc4)C3)ccc2c1"
experimental_system = "B cell"
recorded_value = 98.5812

[[record]]
smiles_record = "CNC(=O)Nc1ccc2c(c1)CC[C@@]21OC(=O)N(CC(=O)N(Cc2ccc(F)cc2)[C@@H](C)C(F)(F)F)C1=O"
experimental_system = "B cell"
recorded_value = 92.4439


The origin of these recorded values is ChEMBL document CHEMBL5724562.
